Measurement target: Nuclear receptor coactivator 1 (Homo sapiens) (UniProt Q15788)
Sequence (Q15788 whole entry, looked up): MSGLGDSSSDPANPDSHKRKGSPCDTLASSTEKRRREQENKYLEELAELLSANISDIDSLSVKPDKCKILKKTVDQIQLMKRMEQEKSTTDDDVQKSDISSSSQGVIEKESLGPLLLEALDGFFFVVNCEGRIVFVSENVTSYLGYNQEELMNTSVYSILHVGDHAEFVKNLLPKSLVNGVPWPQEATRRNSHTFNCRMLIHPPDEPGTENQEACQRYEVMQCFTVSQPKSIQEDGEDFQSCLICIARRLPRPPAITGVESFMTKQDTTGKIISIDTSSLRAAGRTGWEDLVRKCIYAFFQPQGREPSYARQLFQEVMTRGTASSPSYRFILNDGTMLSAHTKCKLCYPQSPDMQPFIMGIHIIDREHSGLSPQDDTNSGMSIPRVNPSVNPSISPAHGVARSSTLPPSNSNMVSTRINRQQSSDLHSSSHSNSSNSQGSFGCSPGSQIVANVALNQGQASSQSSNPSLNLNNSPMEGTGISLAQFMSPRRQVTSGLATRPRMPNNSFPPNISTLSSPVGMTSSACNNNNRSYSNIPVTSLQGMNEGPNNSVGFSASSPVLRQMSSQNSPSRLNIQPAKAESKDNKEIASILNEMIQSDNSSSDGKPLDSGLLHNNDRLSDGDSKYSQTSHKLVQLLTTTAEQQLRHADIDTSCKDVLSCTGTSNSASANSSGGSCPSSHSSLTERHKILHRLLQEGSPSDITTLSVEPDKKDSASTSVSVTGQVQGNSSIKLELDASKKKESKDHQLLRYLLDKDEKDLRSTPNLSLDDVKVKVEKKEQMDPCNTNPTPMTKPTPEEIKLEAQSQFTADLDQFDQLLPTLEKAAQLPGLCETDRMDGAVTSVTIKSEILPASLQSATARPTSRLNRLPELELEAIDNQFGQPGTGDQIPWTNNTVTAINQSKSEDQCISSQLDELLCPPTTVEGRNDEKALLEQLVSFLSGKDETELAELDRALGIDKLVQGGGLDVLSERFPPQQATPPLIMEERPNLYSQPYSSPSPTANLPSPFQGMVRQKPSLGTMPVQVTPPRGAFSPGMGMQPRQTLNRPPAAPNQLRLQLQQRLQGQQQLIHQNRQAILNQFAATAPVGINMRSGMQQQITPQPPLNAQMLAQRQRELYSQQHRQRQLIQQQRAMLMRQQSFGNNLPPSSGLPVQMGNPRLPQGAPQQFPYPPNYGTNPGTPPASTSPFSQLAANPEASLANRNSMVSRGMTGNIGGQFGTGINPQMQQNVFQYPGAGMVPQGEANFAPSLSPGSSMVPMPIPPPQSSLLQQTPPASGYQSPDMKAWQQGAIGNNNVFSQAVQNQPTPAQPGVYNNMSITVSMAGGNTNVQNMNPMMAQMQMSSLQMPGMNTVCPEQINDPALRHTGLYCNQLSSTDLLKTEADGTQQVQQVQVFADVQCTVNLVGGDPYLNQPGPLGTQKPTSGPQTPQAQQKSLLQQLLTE
Protocol summary: SRC1 coactivator transcriptional activity inhibitors, dose response, counter-screen for SRC3 inhibitor project, cell-based, luminescence (AID 602168)
Test context: Cell-based SRC1 luciferase reporter
The source made the active and inactive calls. The rule behind the calls is not given here.
Outcome field: choose from active, inactive

Observe how each entry below is paired with its result.
INSERT INTO assay_data (sample_smiles, assigned_label) VALUES
  ('c1ccc(-c2nnc(-c3ccccn3)nc2NC2CCCCC2)cc1', 'active'),
  ('COc1cccc(/C=N/Nc2cc(-n3nc(C)cc3-c3ccccc3)ncn2)c1O', 'inactive'),
  ('Cc1ccc(OCC(=O)c2cc(C)n(-c3ccccc3)c2C)c([N+](=O)[O-])n1', 'inactive');

We next turn to a different compound, shown below.
Query: recorded result category for Cc1cc(C(=O)CN2C(=O)c3ccccc3S2(=O)=O)c(C)n1C(C)C in this test
inactive

---

Measurement target: UniProt Q15788
Protocol summary: SRC1 coactivator transcriptional activity inhibitors, dose response, counter-screen for SRC3 inhibitor project, cell-based, luminescence (AID 602168)
Test context: Cell-based SRC1 luciferase reporter
Activity calls are given as the source filed them. How the calls were made is not given here.
Outcome field: choose from Yes = active, No = inactive

Observe how each entry below is paired with its result.
INSERT INTO assay_data (compound, assigned_label) VALUES
  ('O=C(CCl)N(c1ccccc1)C1CCS(=O)(=O)C1 (stereo not given)', 'No'),
  ('Nc1ncccc1C(=O)OCC(=O)N1CCN(S(=O)(=O)c2ccc(Cl)cc2)CC1', 'No'),
  ('Cc1ccc(-n2c(Cl)c(Cl)nc(Cl)c2=O)cc1', 'No'),
  ('COC(=O)c1cccc2c1-c1ccccc1/C2=N/O', 'Yes');

Query: recorded result category for Cc1nc2c(-c3ccc(Cl)cc3)cnn2c(N)c1-c1ccc(F)cc1 in this test
No

---

Measurement target: Nuclear receptor coactivator 1 (Homo sapiens)
Protocol summary: SRC1 coactivator transcriptional activity inhibitors, dose response, counter-screen for SRC3 inhibitor project, cell-based, luminescence (AID 602168)
Test context: Cell-based SRC1 luciferase reporter
Calls of active or inactive are those of the source. The rule behind the calls is not given here.
Outcome field: choose from active, inactive

Observe how each entry below is paired with its result.
INSERT INTO measurements (compound, measurement_target, assigned_label) VALUES
  ('Cc1ccc(-n2c(C)cc(C(=O)COc3cccnc3[N+](=O)[O-])c2C)cc1', 'Nuclear receptor coactivator 1 (Homo sapiens)', 'inactive'),
  ('CCOc1ccc(CC(=O)Nc2ccc(NC(=O)c3ccco3)cc2)cc1OCC', 'Nuclear receptor coactivator 1 (Homo sapiens)', 'active'),
  ('O=C(Nc1cccc(C(F)(F)F)c1)Nc1nnc([C@@H]2C[C@H](O)[C@@H](CO)O2)s1', 'Nuclear receptor coactivator 1 (Homo sapiens)', 'active');

Query: recorded result category for C[C@@H](C(=O)Nc1ccc2c(c1)OCCO2)n1c(=O)[nH]c2ccccc2c1=O in this test
inactive

Query: recorded result category for O=C(CCl)NC(Cc1ccccc1)c1ccccc1 (stereo unspecified) in this test
inactive

Query: recorded result category for CCOC(=O)C(=CNc1ccc(NC2=NCC(C)S2)cc1)C(=O)OCC (stereo unspecified) in this test
inactive

Query: recorded result category for Nc1nc(=S)c2ncn([C@@H]3O[C@H](CO)[C@@H](O)[C@H]3O)c2[nH]1 in this test
inactive

---

Measurement target: Nuclear receptor coactivator 1 (Homo sapiens) (UniProt Q15788)
Protocol summary: SRC1 coactivator transcriptional activity inhibitors, dose response, counter-screen for SRC3 inhibitor project, cell-based, luminescence (AID 602168)
Test context: Cell-based SRC1 luciferase reporter
Active and inactive are the calls of the source. How the calls were made is not given here.
Property name: IC50

INSERT INTO measurements (molecule, measurement_target, experimental_value) VALUES
  ('Cc1ccc(N=Nc2ccc3ccccc3c2O)cc1', 'Nuclear receptor coactivator 1 (Homo sapiens) (UniProt Q15788)', '> 35.9 µM (inactive)'),
  ('O=c1[nH]c2ccccc2n1C1CCN(C(c2cccc3ccccc23)c2nnnn2-c2ccc3c(c2)OCCO3)CC1 (stereo not drawn)', 'Nuclear receptor coactivator 1 (Homo sapiens) (UniProt Q15788)', 'inactive'),
  ('CCOc1cc(C(N)=O)cc(Br)c1OC', 'Nuclear receptor coactivator 1 (Homo sapiens) (UniProt Q15788)', 'inactive');

---

Measurement target: Nuclear receptor coactivator 1 (Homo sapiens) (UniProt Q15788)
Protocol summary: SRC1 coactivator transcriptional activity inhibitors, dose response, counter-screen for SRC3 inhibitor project, cell-based, luminescence (AID 602168)
Test context: Cell-based SRC1 luciferase reporter
Calls of active or inactive are those of the source. How the calls were made is not given here.
Property name: IC50

Here's what some known entries look like.
INSERT INTO results (compound, experimental_value) VALUES
  ('C(=Cc1cnc2ccccc2n1)c1ccc2c(c1)OCO2', 'inactive'),
  ('C=CS(=O)(=O)N(Cc1ccc(Cl)c(Cl)c1)C[C@@H](O)CO', '> 35.8 µM (inactive)'),
  ('COc1ccc(/C=C2\CC/C(=C\c3ccc(OC)c(OC)c3)C2=O)cc1OC', '> 35.9 µM (inactive)'),
  ('Cc1ccc(NC(=O)c2cc(C)n(-c3ccccc3)c2C)cc1', '> 35.9 µM (inactive)'),
  ('Cc1ccc2nc(C(F)(F)F)c(C#N)c(N)c2c1', 'inactive');

Give measured IC50 for every item shown.
1. CS(=O)c1nc(-c2ccc(Br)cc2)cc(-c2ccccc2)c1C#N (centres undefined)
2. O=C(NC(NC(=S)N1CCOCC1)C(Cl)(Cl)Cl)c1ccc(Cl)cc1 (centres undefined)
3. CN(Cc1cnc2nc(N)nc(N)c2n1)c1ccc(C(=O)N[C@@H](CCC(=O)O)C(=O)O)cc1

inactive
inactive
> 35.9 µM (inactive)

Which IC50 value is on record for COc1cc(/C=C(/C(=O)c2cccs2)c2nc3ccccc3[nH]2)cc(OC)c1O ?
> 35.9 µM (inactive)
